# Measurement Target: T1, FRS2 PTB (8–136) (human, UniProt Q8WU20 8-136)
# T1 sequence: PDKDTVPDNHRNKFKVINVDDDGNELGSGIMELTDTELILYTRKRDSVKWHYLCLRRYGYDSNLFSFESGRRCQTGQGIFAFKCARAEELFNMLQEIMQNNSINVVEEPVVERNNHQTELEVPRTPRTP
# Assay Remarks: fluorescence polarisation
pKd: −log10 of the molar value. * marks the point of attachment. FITC = O=C1OC2(c3ccc(O)cc3Oc3cc(O)ccc32)c2ccc(NC(=S)*)cc21
Quantity: pKd

IN: Which pKd value belongs to {FITC}-SKGENNPGFQNT-NH2 [FITC-labeled ACE2(787–798) peptide] ?
OUT: < 4.00
